Test system: Aspergillus fumigatus
Test: Antifungal activity against drug-resistant Aspergillus fumigatus by CLSI two fold serial dilution method
Format: functional
I'd appreciate it if you marked entries criterion met when MIC is lower than 70 µM and criterion not met when it is not.

CCCCOc1c(OC)cc(/C=N/NC(N)=S)c2c1CN1CCc3cc4c(cc3C1C2)OCO4 (stereo unspecified) ... criterion not met
COc1cc(/C=N/NC(N)=S)c2c(c1OCc1ccc(Cl)cc1Cl)CN1CCc3cc4c(cc3C1C2)OCO4 (stereo unspecified) ... criterion not met
COc1cc(/C=N/NC(N)=S)c2c(c1OCc1ccccc1F)CN1CCc3cc4c(cc3C1C2)OCO4 (stereo unspecified) ... criterion met
COc1cc(/C=N/NC(N)=S)c2c(c1OCc1ccc(F)cc1)CN1CCc3cc4c(cc3C1C2)OCO4 (stereo unspecified) ... criterion not met

Threshold test, MIC < 70 µM: COc1cc(/C=N/NC(N)=S)c2c(c1O)CN1CCc3cc4c(cc3C1C2)OCO4 (stereo unspecified)
criterion not met

# TODO verify MIC < 70 µM strictly for this compound: CCCCCCCCOc1c(OC)cc(/C=N/NC(N)=S)c2c1CN1CCc3cc4c(cc3C1C2)OCO4 (stereo unspecified)
criterion met

Determine if C#CCOc1c(OC)cc(/C=N/NC(N)=S)c2c1CN1CCc3cc4c(cc3C1C2)OCO4 (stereo unspecified) shows MIC strictly lower than 70 µM.
criterion met

is_below(MIC, 70 µM) for COc1cc(/C=N/NC(N)=S)c2c(c1OCc1ccc(Cl)cc1)CN1CCc3cc4c(cc3C1C2)OCO4 (stereo unspecified) ?
criterion not met

Please check: MIC for CCCCCCOc1c(OC)cc(/C=N/NC(N)=S)c2c1CN1CCc3cc4c(cc3C1C2)OCO4 (stereo unspecified) , strictly under 70 µM or not?
criterion not met

I wonder whether CCCCCCCCCCOc1c(OC)cc(/C=N/NC(N)=S)c2c1CN1CCc3cc4c(cc3C1C2)OCO4 (stereo unspecified) has MIC below 70 µM. Can you tell?
criterion met

Lab log: compare recorded MIC with 70 µM; is it strictly lower for COc1cc(/C=N/NC(N)=S)c2c(c1OCCO)CN1CCc3cc4c(cc3C1C2)OCO4 (stereo unspecified) ?
criterion not met

Just wondering, is MIC of CCOc1c(OC)cc(/C=N/NC(N)=S)c2c1CN1CCc3cc4c(cc3C1C2)OCO4 (stereo unspecified) below 70 µM?
criterion not met

Lab log: compare recorded MIC with 70 µM; is it strictly lower for COc1cc(/C=N/NC(N)=S)c2c(c1OCc1ccc(Cl)c(Cl)c1)CN1CCc3cc4c(cc3C1C2)OCO4 (stereo unspecified) ?
criterion met

Strictly below 70 µM in MIC? COc1cc(/C=N/NC(N)=S)c2c(c1OCc1ccc([N+](=O)[O-])cc1)CN1CCc3cc4c(cc3C1C2)OCO4 (stereo unspecified)
criterion not met

###

What MIC was measured for each of the following?
Test system: Escherichia coli
Test: Antibacterial activity against Escherichia coli DH52 after 18 to 24 hrs by CLSI two fold serial dilution method
Assay type: functional
One number for each entry, in µM.

Example entries begin here.
COc1cc(/C=N/Nc2nccs2)c2c(c1OCc1ccc(Cl)c(Cl)c1)CN1CCc3cc4c(cc3C1C2)OCO4 (centres undefined) ... 110
CCCCOc1c(OC)cc(/C=N/Nc2nccs2)c2c1CN1CCc3cc4c(cc3C1C2)OCO4 (centres undefined) ... 60
CCCCCCCCOc1c(OC)cc(/C=N/Nc2nccs2)c2c1CN1CCc3cc4c(cc3C1C2)OCO4 (centres undefined) ... 450

Batch: MIC for all items listed.
1. COc1cc(/C=N/Nc2nccs2)c2c(c1OCc1ccccc1F)CN1CCc3cc4c(cc3C1C2)OCO4 (centres undefined)
2. COc1cc(/C=N/Nc2nccs2)c2c(c1OCc1ccc(Cl)cc1)CN1CCc3cc4c(cc3C1C2)OCO4 (centres undefined)
3. COc1cc(/C=N/NC(N)=S)c2c(c1OCCO)CN1CCc3cc4c(cc3C1C2)OCO4 (centres undefined)
4. COc1cc(/C=N/Nc2nccs2)c2c(c1OCCO)CN1CCc3cc4c(cc3C1C2)OCO4 (centres undefined)
5. C#CCOc1c(OC)cc(/C=N/Nc2nccs2)c2c1CN1CCc3cc4c(cc3C1C2)OCO4 (centres undefined)

[230, 110, 270, 130, 130]

###

Tested on: Staphylococcus aureus
Assay: Antibacterial activity against Staphylococcus aureus ATCC 25923 after 18 to 24 hrs by CLSI two fold serial dilution method
Format: functional
Threshold check on MIC: strictly below 70 µM is met; on or above 70 µM is not met.

Does the reported MIC of COc1cc(/C=N/Nc2nccs2)c2c(c1OCc1ccc([N+](=O)[O-])cc1)CN1CCc3cc4c(cc3C1C2)OCO4 (centres undefined) stay below 70 µM?
not met

# strict comparison: is reported MIC < 70 µM? input = CCCCCCCCOc1c(OC)cc(/C=N/Nc2nccs2)c2c1CN1CCc3cc4c(cc3C1C2)OCO4 (centres undefined)
not met

Please let me know if COc1cc(/C=N/NC(N)=S)c2c(c1OCc1ccccc1Cl)CN1CCc3cc4c(cc3C1C2)OCO4 (centres undefined) shows MIC below 70 µM.
not met

Determine whether this compound shows MIC lower than 70 µM (ties excluded): COc1cc(/C=N/NC(N)=S)c2c(c1OCc1ccccc1F)CN1CCc3cc4c(cc3C1C2)OCO4 (centres undefined)
met

Dear reviewer, please state whether COc1cc(/C=N/Nc2nccs2)c2c(c1OCc1ccc(Cl)cc1)CN1CCc3cc4c(cc3C1C2)OCO4 (centres undefined) has MIC strictly beneath 70 µM.
not met

Identify whether the compound C=CCOc1c(OC)cc(/C=N/Nc2nccs2)c2c1CN1CCc3cc4c(cc3C1C2)OCO4 (centres undefined) records MIC below 70 µM.
met

Given the entry CCCCCCCCCCCCOc1c(OC)cc(/C=N/NC(N)=S)c2c1CN1CCc3cc4c(cc3C1C2)OCO4 (centres undefined) , would its reported MIC be below 70 µM?
not met

Is MIC strictly under 70 µM for the entry C#CCOc1c(OC)cc(/C=N/Nc2nccs2)c2c1CN1CCc3cc4c(cc3C1C2)OCO4 (centres undefined) ?
not met

###

Assign MIC to each entry below.
Tested on: Staphylococcus aureus
Test: Antibacterial activity against Staphylococcus aureus ATCC 25923 after 18 to 24 hrs by CLSI two fold serial dilution method
Format: functional
Numbers only, in µM.

Worked examples, 3 compounds total:
COc1cc(/C=N/Nc2nccs2)c2c(c1OCC#N)CN1CCc3cc4c(cc3C1C2)OCO4 (configuration not stated) ... 130
CCCCOc1c(OC)cc(/C=N/NC(N)=S)c2c1CN1CCc3cc4c(cc3C1C2)OCO4 (configuration not stated) ... 130
COc1cc(/C=N/Nc2nccs2)c2c(c1OCc1ccc(F)cc1)CN1CCc3cc4c(cc3C1C2)OCO4 (configuration not stated) ... 110

I need MIC for every entry listed below, if you could help.
1. COc1cc(/C=N/NC(N)=S)c2c(c1OCc1ccccc1)CN1CCc3cc4c(cc3C1C2)OCO4 (configuration not stated)
2. COc1cc(/C=N/NC(N)=S)c2c(c1OCCO)CN1CCc3cc4c(cc3C1C2)OCO4 (configuration not stated)
3. CCn1cc(C(=O)O)c(=O)c2cc(F)c(N3CCNCC3)cc21
4. COc1cc(/C=N/Nc2nccs2)c2c(c1OCc1ccc(Cl)cc1Cl)CN1CCc3cc4c(cc3C1C2)OCO4 (configuration not stated)

1: 120; 2: 270; 3: 2; 4: 110

###

System: Bacillus subtilis
Assay: Antibacterial activity against Bacillus subtilis ATCC 21216 after 18 to 24 hrs by CLSI two fold serial dilution method
Assay type: functional
Hi there, I'd appreciate the recorded log10 of MIC for every entry that follows.
Recall that a logarithmic scale is used here: each number is log10 of MIC in µM.

Example cases with answers are listed next.
COc1cc(/C=N/NC(N)=S)c2c(c1OCc1ccc(Cl)c(Cl)c1)CN1CCc3cc4c(cc3C1C2)OCO4 (stereo not drawn) ... 2.34
COc1cc(/C=N/NC(N)=S)c2c(c1OCc1ccccc1Cl)CN1CCc3cc4c(cc3C1C2)OCO4 (stereo not drawn) ... 2.36
CCCCCCCCCCCCOc1c(OC)cc(/C=N/NC(N)=S)c2c1CN1CCc3cc4c(cc3C1C2)OCO4 (stereo not drawn) ... 2.63
CCCCCCCCOc1c(OC)cc(/C=N/NC(N)=S)c2c1CN1CCc3cc4c(cc3C1C2)OCO4 (stereo not drawn) ... 2.38
COc1cc(/C=N/Nc2nccs2)c2c(c1OCc1ccccc1)CN1CCc3cc4c(cc3C1C2)OCO4 (stereo not drawn) ... 2.67
COc1cc(/C=N/Nc2nccs2)c2c(c1OCc1ccc(Cl)cc1Cl)CN1CCc3cc4c(cc3C1C2)OCO4 (stereo not drawn) ... 2.32

// each molecule listed below needs its log10 of MIC
1. CCCCCCCCCCOc1c(OC)cc(/C=N/NC(N)=S)c2c1CN1CCc3cc4c(cc3C1C2)OCO4 (stereo not drawn)
2. CCn1cc(C(=O)O)c(=O)c2cc(F)c(N3CCNCC3)cc21
3. COc1cc(/C=N/NC(N)=S)c2c(c1OCCO)CN1CCc3cc4c(cc3C1C2)OCO4 (stereo not drawn)
4. COc1cc(/C=N/Nc2nccs2)c2c(c1OCc1ccc(Cl)c(Cl)c1)CN1CCc3cc4c(cc3C1C2)OCO4 (stereo not drawn)
5. C=CCOc1c(OC)cc(/C=N/Nc2nccs2)c2c1CN1CCc3cc4c(cc3C1C2)OCO4 (stereo not drawn)
6. CCCCOc1c(OC)cc(/C=N/NC(N)=S)c2c1CN1CCc3cc4c(cc3C1C2)OCO4 (stereo not drawn)

1: 2.36; 2: 0.48; 3: 2.43; 4: 2.32; 5: 2.72; 6: 2.43
